This collection of values is drawn from paper PMC6478789.

Target Desc: BAZ2B (Homo sapiens)
Sequence (Q9UIF8 2060-2164 limits assumed): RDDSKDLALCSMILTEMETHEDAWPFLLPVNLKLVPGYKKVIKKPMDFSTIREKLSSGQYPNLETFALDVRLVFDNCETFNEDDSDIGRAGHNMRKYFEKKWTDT
Experimental Details: BROMOscan ligand-binding assay
Experimental Context: KD, BAZ2B
pKd: −log10 of the molar value.
# key: entry, value: pKd
Property Name: pKd

[
  {
    "Molecule": "O=C(O)c1ccccc1O",
    "Target Desc": "BAZ2B (Homo sapiens)",
    "Test Value": "< 1.85"
  },
  {
    "Molecule": "O=C(C=CN1CC2CC1CN2c1ccccn1)c1ccccc1O (centres unmarked)",
    "Target Desc": "BAZ2B (Homo sapiens)",
    "Test Value": "< 4.00"
  }
]

---

Target Desc: CECR2 (Homo sapiens)
Sequence (Q9BXF3 434-538 limits assumed): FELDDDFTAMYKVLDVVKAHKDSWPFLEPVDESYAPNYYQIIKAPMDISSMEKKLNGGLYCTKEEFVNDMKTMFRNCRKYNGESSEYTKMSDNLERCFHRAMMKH
Experimental Details: BROMOscan ligand-binding assay
Experimental Context: KD, BROMOscan, CECR2

[
  {
    "Compound": "COc1ccc(CCc2nc3cc(-c4c(C)noc4C)ccc3n2C[C@H](C)N2CCOCC2)cc1Cl [SGC-CBP30]",
    "Kd": "7.9 µM"
  }
]

---

Target Desc: MYST1 (Homo sapiens)
Experimental Details: Histone acetyltransferase (HAT) activity assay
Format: biochemical
Experimental Context: 10µM

[
  {
    "Record Smiles": "COc1ccccc1S(=O)(=O)Nc1ccc2c(c1)CN(C)C(=O)N2",
    "Units Label": "%",
    "HATs Activity (%)": 95
  },
  {
    "Record Smiles": "COc1ccccc1C(=O)Nc1cc2c(cc1N1CCNC[C@H]1C)n(C)c(=O)n2C",
    "Units Label": "%",
    "HATs Activity (%)": 101
  },
  {
    "Record Smiles": "COc1cc(C#N)ccc1S(=O)(=O)Nc1ccc2c(c1)cc(C)c(=O)n2C",
    "Units Label": "%",
    "HATs Activity (%)": 91
  },
  {
    "Record Smiles": "Cc1cc(=O)n(C)c2cc(N3C(=O)CC[C@H](NS(=O)(=O)CC(C)C)[C@H]3c3ccc(Cl)cc3)ccc12",
    "Units Label": "%",
    "HATs Activity (%)": 88
  },
  {
    "Record Smiles": "CCn1cc(-c2cccc(C(F)(F)F)c2)c2sc(C(=N)NC3CCS(=O)(=O)CC3)cc2c1=O",
    "Units Label": "%",
    "HATs Activity (%)": 104
  },
  {
    "Record Smiles": "COc1cc2c(cc1NS(=O)(=O)c1ccc(Br)cc1C)n(C)c(=O)n2C",
    "Units Label": "%",
    "HATs Activity (%)": 94
  }
]

---

# key: entry, value: Kd
Target Desc: TAF1L(2) (Homo sapiens, UniProt Q8IZX4)
Sequence (Q8IZX4 1517-1626 limits assumed): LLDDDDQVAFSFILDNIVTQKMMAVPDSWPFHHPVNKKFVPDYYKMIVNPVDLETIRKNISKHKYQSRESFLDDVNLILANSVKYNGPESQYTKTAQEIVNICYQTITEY
Experimental Details: BROMOscan ligand-binding assay
Experimental Context: BROMOscan Gene Symbol TAF1L(2)
Property Name: Kd (µM)

[
  {
    "Compound": "COc1ccc(CCc2nc3cc(-c4c(C)noc4C)ccc3n2CCN2CCOCC2)cc1 [CBP30-383]",
    "Target Desc": "TAF1L(2) (Homo sapiens, UniProt Q8IZX4)",
    "Units Label": "µM",
    "Test Value": 14
  },
  {
    "Compound": "Cc1noc(C)c1-c1ccc2c(c1)nc(CCc1ccccc1)n2CCN1CCOCC1 [CBP30-298]",
    "Target Desc": "TAF1L(2) (Homo sapiens, UniProt Q8IZX4)",
    "Units Label": "µM",
    "Test Value": 17
  }
]

---

Target Desc: ATAD2B (Homo sapiens, UniProt Q9ULI0)
Sequence (Q9ULI0 951-1066 limits assumed): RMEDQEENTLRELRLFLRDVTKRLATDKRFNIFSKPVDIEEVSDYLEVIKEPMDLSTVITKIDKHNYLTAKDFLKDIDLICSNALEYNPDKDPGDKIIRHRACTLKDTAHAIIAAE
Experimental Details: BROMOscan ligand-binding assay
Experimental Context: ATAD2B
Property Name: Kd

[
  {
    "Molecule": "COc1cc(C#N)ccc1S(=O)(=O)Nc1ccc2c(c1)cc(C)c(=O)n2C [NI 57]",
    "Test Value": "> 50 µM"
  },
  {
    "Molecule": "COc1cc2c(cc1NS(=O)(=O)c1ccc(Br)cc1C)n(C)c(=O)n2C [OF-1]",
    "Test Value": "29 µM"
  },
  {
    "Molecule": "Cc1cc(=O)n(C)c2cc(N3C(=O)CC[C@H](NS(=O)(=O)CC(C)C)[C@H]3c3ccc(Cl)cc3)ccc12 [LP-99]",
    "Test Value": "> 50 µM"
  }
]

---

Target Desc: MYST1 (Homo sapiens, UniProt Q9H7Z6)
Sequence (Q9H7Z6 whole entry, species assumed): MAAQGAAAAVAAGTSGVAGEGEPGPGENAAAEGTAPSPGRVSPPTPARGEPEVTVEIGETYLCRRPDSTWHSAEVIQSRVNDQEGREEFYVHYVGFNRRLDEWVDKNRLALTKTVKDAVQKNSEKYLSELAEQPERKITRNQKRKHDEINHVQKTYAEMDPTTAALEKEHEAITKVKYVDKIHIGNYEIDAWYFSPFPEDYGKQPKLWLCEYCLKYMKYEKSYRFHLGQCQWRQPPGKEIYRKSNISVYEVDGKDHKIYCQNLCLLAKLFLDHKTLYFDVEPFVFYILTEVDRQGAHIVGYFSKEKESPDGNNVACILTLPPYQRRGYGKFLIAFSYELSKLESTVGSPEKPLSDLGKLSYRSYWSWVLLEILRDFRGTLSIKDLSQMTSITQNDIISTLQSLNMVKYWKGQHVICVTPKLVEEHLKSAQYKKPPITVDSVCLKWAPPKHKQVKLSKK
Experimental Details: Histone acetyltransferase (HAT) activity assay;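 note: selectivity screen across a panel of histone acetyltransferases, with compounds tested at 1 and 10 µM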
Format: biochemical
Experimental Context: 10µM; read-out: HATs Activity (%)
Property Name: activity at 10 µM (%)

[
  {
    "Compound": "Cc1c(NC(=O)c2cc(C(N)=O)nc3cc(F)ccc23)c(C(F)(F)F)nn1Cc1ccc(C(C)(C)C)cc1",
    "Property Name": "activity at 10 µM",
    "Test Value": 93
  },
  {
    "Compound": "CC(=O)c1cc(-c2cc(C(=O)NC3CC3)ccc2C)c2ncccn12",
    "Property Name": "activity at 10 µM",
    "Test Value": 103
  },
  {
    "Compound": "COc1ccc(CCc2nc3cc(-c4c(C)noc4C)ccc3n2C[C@H](C)N2CCOCC2)cc1Cl",
    "Property Name": "activity at 10 µM",
    "Test Value": 97
  },
  {
    "Compound": "O=C(C=CN1CC2CC1CN2c1ccccn1)c1ccccc1O (stereo not shown)",
    "Property Name": "activity at 10 µM",
    "Test Value": 99
  },
  {
    "Compound": "Cc1cc2c(cc1N1C(=O)c3cccc4c(CCCO)ccc(c34)C1=O)n(C)c(=O)n2C",
    "Property Name": "activity at 10 µM",
    "Test Value": 99
  },
  {
    "Compound": "CO[C@H]1CNC[C@@H](OCC2CCC(F)(F)CC2)[C@@H]1Nc1ncc(-c2cncc(C)c2)c2cc(C)c(=O)[nH]c12",
    "Property Name": "activity at 10 µM",
    "Test Value": 103
  },
  {
    "Compound": "COc1cc(Cl)c(C(=O)N[C@@H](CN[C@H]2CC[C@@H](N)CC2)Cc2ccc(C#N)cc2)cc1-c1ccc(CN[C@H](C)c2ccc(C)cc2)o1",
    "Property Name": "activity at 10 µM",
    "Test Value": 94
  },
  {
    "Compound": "CN(C)CCCOc1ccc(-c2cc(NCCCn3cccn3)nc(S(C)(=O)=O)n2)cc1",
    "Property Name": "activity at 10 µM",
    "Test Value": 97
  },
  {
    "Compound": "CCC(=O)N1CCOc2c(cc(-c3ccc(OC)c(OC)c3)cc2OCC2CCCN(C)C2)C1 (stereo not shown)",
    "Property Name": "activity at 10 µM",
    "Test Value": 103
  },
  {
    "Compound": "CN1C[C@H](Nc2cnn(C)c(=O)c2Br)C[C@H](c2ccccc2)C1",
    "Property Name": "activity at 10 µM",
    "Test Value": 98
  },
  {
    "Compound": "Cc1c(NC(=O)c2cc(C(N)=O)nc3cc(F)ccc23)c(C(F)(F)F)nn1Cc1ccc(C#N)cc1",
    "Property Name": "activity at 10 µM",
    "Test Value": 91
  },
  {
    "Compound": "COc1cc(-c2cn(C)c(=O)c3cnccc23)c(OC)cc1CN(C)C",
    "Property Name": "activity at 10 µM",
    "Test Value": 101
  },
  {
    "Compound": "Cc1nnc2c3ccccc3c(N[C@@H](C)[C@H](c3ccccc3)N(C)C)nn12",
    "Property Name": "activity at 10 µM",
    "Test Value": 96
  }
]

---

# key: entry, value: Kd
Target Desc: GCN5L2 (Homo sapiens, UniProt Q92830)
Sequence (Q92830 728-832 limits assumed): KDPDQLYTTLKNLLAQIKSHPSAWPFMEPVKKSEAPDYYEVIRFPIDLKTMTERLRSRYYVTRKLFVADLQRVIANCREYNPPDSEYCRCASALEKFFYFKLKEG
Experimental Details: BROMOscan ligand-binding assay
Experimental Context: KD, GCN5L2
Property Name: Kd

[
  {
    "Compound": "O=C(C=CN1CC2CC1CN2c1ccccn1)c1ccccc1O (stereo not drawn)",
    "Property Name": "Kd",
    "Test Value": "> 100 µM"
  },
  {
    "Compound": "CCC(=O)N1CCOc2c(cc(-c3ccc(OC)c(OC)c3)cc2OCC2CCCN(C)C2)C1 (stereo not drawn)",
    "Property Name": "Kd",
    "Test Value": "> 100 µM"
  },
  {
    "Compound": "O=C(O)c1ccccc1O",
    "Property Name": "Kd",
    "Test Value": "> 14000 µM"
  }
]
